# assayed_target: T1, human parathyroid hormone receptor (PTHR) (human, UniProt Q03431 27-593)
# T1 construct: Assayed in membranes of HKRK-B7 cells or of transiently transfected COS-7 cells, or on intact HKRK-B7/HKRK-B64/COS-7 cells; RG = co-transfected with negative-dominant Galpha-s; R0 = receptor alone plus GTPgammaS; also called hPTHR; human PTH receptor
# T1 sequence: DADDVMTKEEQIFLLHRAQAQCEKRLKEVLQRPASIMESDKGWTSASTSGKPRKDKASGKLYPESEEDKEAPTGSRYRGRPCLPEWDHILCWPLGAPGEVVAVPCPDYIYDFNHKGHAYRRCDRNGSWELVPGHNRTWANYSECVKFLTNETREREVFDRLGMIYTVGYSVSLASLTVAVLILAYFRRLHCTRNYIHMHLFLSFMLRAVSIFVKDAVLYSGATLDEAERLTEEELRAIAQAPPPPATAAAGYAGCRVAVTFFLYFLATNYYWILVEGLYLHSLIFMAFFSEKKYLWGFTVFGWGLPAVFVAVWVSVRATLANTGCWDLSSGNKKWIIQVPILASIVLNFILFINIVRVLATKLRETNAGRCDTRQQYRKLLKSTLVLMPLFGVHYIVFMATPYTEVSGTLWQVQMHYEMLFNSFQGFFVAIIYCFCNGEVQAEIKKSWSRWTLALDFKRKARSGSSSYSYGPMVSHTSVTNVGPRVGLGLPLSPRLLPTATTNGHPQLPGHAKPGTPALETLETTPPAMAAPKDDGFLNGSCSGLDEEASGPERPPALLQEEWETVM
# procedure_text: competition radioligand binding, hPTHR RG conformation
Ends that are not written are not given here.
measurement_label: pIC50
The value called pIC50 is obtained by taking minus log10 of the concentration in mol/L.

Below, each entry is followed by its recorded pIC50 result.
AVSEHQLLHDKGKSIQDARRRAFLLKLIAE-NH2 [A18,22,L25,K26-PTHrP(1-30)NH]	10.30
AVSEHQLLHDKGKSIQDERRRAFLLKLI-NH2 (also called EALK-PTHrP(1-28)) [E18,A22,L25,K26-PTHrP(1-28)NH]	10.00

Consider the binder AVSEHQLLHDKGKSIQDARRRAFLLKLI-NH2 (not fully specified, also called [Ala^18,22,Leu^25,Lys^26]-PTHrP(1-28); AALK-PTHrP(1-28)) [A18,22,L25,K26-PTHrP(1-28)NH] and give its measured pIC50.
10.40
